Run Description: Plasma pharmacokinetics, part 1 (healthy subjects)
Format: in vivo, human
Recorded Conditions: human, inhaled or intranasal, single inhaled 50 mg, mean±SD
Observable: AUC(0-inf)
Provide a numeric answer, followed by its unit.

Entry OC[C@H]1O[C@@H](S[C@@H]2O[C@H](CO)[C@H](O)[C@H](n3cc(-c4cccc(F)c4)nn3)[C@H]2O)[C@H](O)[C@@H](n2cc(-c3cccc(F)c3)nn2)[C@H]1O , AUC(0-inf) reported as 1160 ng·h/mL

* * *

Run Description: Plasma pharmacokinetics, part 1 (healthy subjects)
Format: in vivo, human
Recorded Conditions: human, inhaled or intranasal, single inhaled 50 mg, mean±SD
Observable: half-life (min)
Numbers only, in min.

Entry OC[C@H]1O[C@@H](S[C@@H]2O[C@H](CO)[C@H](O)[C@H](n3cc(-c4cccc(F)c4)nn3)[C@H]2O)[C@H](O)[C@@H](n2cc(-c3cccc(F)c3)nn2)[C@H]1O , half-life reported as 48.6

* * *

Run Description: Plasma pharmacokinetics, part 1 (healthy subjects)
Assay type: in vivo, human
Recorded Conditions: human, inhaled or intranasal, single inhaled 1.5 mg, mean±SD
Observable: half-life (h)
Answers are plain numbers, in h.

Entry OC[C@H]1O[C@@H](S[C@@H]2O[C@H](CO)[C@H](O)[C@H](n3cc(-c4cccc(F)c4)nn3)[C@H]2O)[C@H](O)[C@@H](n2cc(-c3cccc(F)c3)nn2)[C@H]1O , half-life reported as 1.13

* * *

Run Description: Plasma pharmacokinetics, part 2 (IPF patients)
Format: in vivo, human
Recorded Conditions: human, plasma, inhaled, 3 mg, IPF patients; plasma; Day 14; 3 mg once daily; mean±SD
Observable: Cmax (ng/mL)
One number for each entry, in ng/mL.

Entry OC[C@H]1O[C@@H](S[C@@H]2O[C@H](CO)[C@H](O)[C@H](n3cc(-c4cccc(F)c4)nn3)[C@H]2O)[C@H](O)[C@@H](n2cc(-c3cccc(F)c3)nn2)[C@H]1O , Cmax reported as 16.5

* * *

Run Description: Plasma pharmacokinetics, part 1 (healthy subjects)
Format: in vivo, human
Recorded Conditions: human, inhaled or intranasal, single inhaled 50 mg, mean±SD, read-out: Cmax
Observable: Cmax (ng/mL)
One number for each entry, in ng/mL.

Entry OC[C@H]1O[C@@H](S[C@@H]2O[C@H](CO)[C@H](O)[C@H](n3cc(-c4cccc(F)c4)nn3)[C@H]2O)[C@H](O)[C@@H](n2cc(-c3cccc(F)c3)nn2)[C@H]1O [TD139] , Cmax reported as 126

* * *

Run Description: Plasma pharmacokinetics, part 2 (IPF patients)
Type: in vivo, human
Recorded Conditions: human, plasma, inhaled, 0.3 mg, IPF patients; plasma; Day 14; 0.3 mg once daily; mean±SD
Observable: Cmax (ng/mL)
One number for each entry, in ng/mL.

Entry OC[C@H]1O[C@@H](S[C@@H]2O[C@H](CO)[C@H](O)[C@H](n3cc(-c4cccc(F)c4)nn3)[C@H]2O)[C@H](O)[C@@H](n2cc(-c3cccc(F)c3)nn2)[C@H]1O [TD139] , Cmax reported as 0.86

* * *

Run Description: Plasma pharmacokinetics, part 2 (IPF patients)
Assay type: in vivo, human
Recorded Conditions: human, plasma, inhaled, 0.3 mg, IPF patients; plasma; Day 1; 0.3 mg once daily; mean±SD
Observable: Cmax (ng/mL)
Numbers only, in ng/mL.

Entry OC[C@H]1O[C@@H](S[C@@H]2O[C@H](CO)[C@H](O)[C@H](n3cc(-c4cccc(F)c4)nn3)[C@H]2O)[C@H](O)[C@@H](n2cc(-c3cccc(F)c3)nn2)[C@H]1O , Cmax reported as 0.55

* * *

Run Description: Plasma pharmacokinetics, part 2 (IPF patients)
Type: in vivo, human
Recorded Conditions: human, plasma, inhaled, 10 mg, IPF patients; plasma; Day 1; 10 mg once daily; mean±SD; read-out: T1/2 (converted)
Observable: half-life (h)
One number for each entry, in h.

Entry OC[C@H]1O[C@@H](S[C@@H]2O[C@H](CO)[C@H](O)[C@H](n3cc(-c4cccc(F)c4)nn3)[C@H]2O)[C@H](O)[C@@H](n2cc(-c3cccc(F)c3)nn2)[C@H]1O , half-life reported as 9.69

* * *

Run Description: Plasma pharmacokinetics, part 2 (IPF patients)
Assay type: in vivo, human
Recorded Conditions: human, plasma, inhaled, 3 mg, IPF patients; plasma; Day 14; 3 mg once daily; mean±SD
Observable: AUC(0-inf) (ng·h/mL)
Numbers only, in ng·h/mL.

Entry OC[C@H]1O[C@@H](S[C@@H]2O[C@H](CO)[C@H](O)[C@H](n3cc(-c4cccc(F)c4)nn3)[C@H]2O)[C@H](O)[C@@H](n2cc(-c3cccc(F)c3)nn2)[C@H]1O , AUC(0-inf) reported as 149
